Biological target: T1, human CDH17, full length, expressed on cells (HEK293-hCDH17); AsPC-1, HCT-8, AGS, LoVo, KATO III, HT-29 tumor … (human, UniProt Q12864 23-832)
T1 construct: also called human CDH17 expressed on tumor cells
T1 sequence: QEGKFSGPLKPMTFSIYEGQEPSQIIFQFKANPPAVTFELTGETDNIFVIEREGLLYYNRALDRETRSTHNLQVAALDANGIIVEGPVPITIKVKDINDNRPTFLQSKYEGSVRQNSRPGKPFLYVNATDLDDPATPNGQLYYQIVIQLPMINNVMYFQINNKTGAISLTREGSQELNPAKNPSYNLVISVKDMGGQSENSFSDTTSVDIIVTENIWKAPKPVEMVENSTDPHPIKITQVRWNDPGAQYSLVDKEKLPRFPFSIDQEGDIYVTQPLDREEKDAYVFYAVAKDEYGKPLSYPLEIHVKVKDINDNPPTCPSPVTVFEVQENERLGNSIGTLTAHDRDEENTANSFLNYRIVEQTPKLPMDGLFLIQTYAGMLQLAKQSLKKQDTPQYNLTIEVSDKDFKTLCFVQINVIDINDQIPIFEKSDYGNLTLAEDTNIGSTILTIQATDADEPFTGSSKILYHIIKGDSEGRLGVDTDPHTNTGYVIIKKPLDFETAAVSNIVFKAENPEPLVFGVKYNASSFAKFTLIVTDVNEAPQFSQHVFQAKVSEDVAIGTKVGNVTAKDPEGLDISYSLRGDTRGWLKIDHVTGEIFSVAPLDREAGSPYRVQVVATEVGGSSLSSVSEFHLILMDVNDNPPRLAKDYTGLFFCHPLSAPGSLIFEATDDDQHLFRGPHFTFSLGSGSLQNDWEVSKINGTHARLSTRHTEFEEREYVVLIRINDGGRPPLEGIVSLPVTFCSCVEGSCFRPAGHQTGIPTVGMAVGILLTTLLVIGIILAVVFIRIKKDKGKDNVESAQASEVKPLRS
Test: flow cytometry, HEK293-hCDH17 cells
RECORDED METRIC: binding result

BINDER: 143H10E4 chimeric mAb (antibody, V domains shown, Mouse variable regions fused to human IgG1 constant region) VH: QVQLQQSDAELVKPGASVKISCKASGSTFTDHTIHWVKQRPEQGLEWIGYIYPVYGYTQNNEKFKGKATLTADKSSSTAYMQLNSLTSEDSAVYFCARSRDSNPYYFDYWGQGTTLTVSS VL: EIVLTQSPALMAASPGEKVTITCTVSSSISSSNLHWYQQKSGTSPKPWIYGTSNLASGVPVRFSGSGSGTSYSLTISSMEAEDAATYYCQQWSSYPFTFGSGTKLKMK
RECORDED METRIC: binding result
TEST RESULT: binds
//
BINDER: 103G6G1 chimeric mAb (antibody, V domains shown, Mouse variable regions fused to human IgG1 constant region) VH: EVKLVESEGGLVQPGSSMKLSCTASGFTFSDFYMAWVRQVPEKGLEWVANINYDSTITYYLDSLKSRFIISRDNAENILYLQMSSLKSEDTATYYCARLLYYYGSLYFDVWGTGTTVTVSS VL: DIQMTQSPASLSASVGETVTITCRASENIYSYLAWYQQKQGKSPQLLVYDAKTLAEGVPSRFSGSGSGTQFSLKINSLQPEDFGSYYCQHHYGIPITFGAGTNLELK
RECORDED METRIC: binding result
TEST RESULT: binds
//
BINDER: 20C3E8 chimeric mAb (antibody, V domains shown, Mouse variable regions fused to human IgG1 constant region) VH: QVQLQQSGAELARPGASVKLSCKASGYTFTSYGISWVKQRTGQGLEWIGEIYPRSGNTYYNEKFKGKATLTADKSSSTAYMELRSLTSEDSAVYFCSRLDYGTSPFDYWGQGTTLTVSS VL: NIVMTQSPKSMSMSVGERVTLSCKASENVGTFVSWYQHKPEQSPKLLIYGASNRYTGVPDRFTGSGSATDFTLTISSVQAEDLADYHCGQSYSYPYTFGGGTKLEIK
RECORDED METRIC: binding result
TEST RESULT: binds
